Target: Tlp11-LBD homologue (WP_115570384.1, residues 34-332) (Helicobacter equorum, UniProt A0A3D8ITS8)
Sequence (A0A3D8ITS8 entry or part of it): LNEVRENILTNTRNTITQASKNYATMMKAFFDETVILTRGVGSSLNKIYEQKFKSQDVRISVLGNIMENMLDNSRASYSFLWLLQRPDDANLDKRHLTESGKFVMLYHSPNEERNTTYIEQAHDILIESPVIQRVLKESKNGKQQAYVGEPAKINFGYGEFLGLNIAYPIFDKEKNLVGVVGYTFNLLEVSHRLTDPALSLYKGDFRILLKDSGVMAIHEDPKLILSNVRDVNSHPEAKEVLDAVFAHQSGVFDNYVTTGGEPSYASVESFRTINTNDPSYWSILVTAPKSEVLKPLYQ
Measured Attribute: Kd (µM)

Molecule | Measured Attribute | Unit String | Observed Result
COC(=O)C(C)=O [methyl pyruvate, Methyl pyruvate] | Kd | µM | 340

---

Each item that follows carries a reported Kd.
Target: Tlp11-LBD
Run Description: Microscale thermophoresis (MST) of Tlp11-LBD
Assay type: binding, C. jejuni ATCC 33560
Assay Context: 250 nM protein, methyl pyruvate at pH 7.0, read-out: Kd of Tlp11-LBD binding

Compound | Target | Unit String | Kd
c1ccc2ncccc2c1 | Tlp11-LBD | µM | 905
COC(=O)C(C)=O [methyl pyruvate, Methyl pyruvate] | Tlp11-LBD | µM | 688
Cc1ccccc1 | Tlp11-LBD | µM | 844
